Values from patent US20250042994A1

Below, each entry is listed with its recorded koff.
Biological target: T1, Human CD19-his protein (human, UniProt P15391 20-291)
T1 construct: bought protein; also called recombinant human CD19-His; CD19 full-length protein; not shown: His tag
T1 sequence (looked up): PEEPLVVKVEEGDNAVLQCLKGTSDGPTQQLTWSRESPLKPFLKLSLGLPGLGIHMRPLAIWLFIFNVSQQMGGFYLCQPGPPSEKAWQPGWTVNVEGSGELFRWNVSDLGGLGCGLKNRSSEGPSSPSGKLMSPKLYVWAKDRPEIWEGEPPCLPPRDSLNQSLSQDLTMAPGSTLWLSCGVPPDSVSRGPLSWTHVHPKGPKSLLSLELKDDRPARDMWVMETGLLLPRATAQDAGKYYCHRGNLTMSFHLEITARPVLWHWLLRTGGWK
Experiment: SPR Biacore, Ab captured on Protein A, CD19-His analyte

| binder | koff |
| --- | --- |
| F3.83.9 (antibody, human IgG1, V domains shown, human-murine chimeric antibody, human IgG1 constant) VH: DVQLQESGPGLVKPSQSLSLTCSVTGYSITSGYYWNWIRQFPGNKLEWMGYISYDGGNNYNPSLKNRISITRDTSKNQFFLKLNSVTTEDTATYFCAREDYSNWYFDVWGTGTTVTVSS VL: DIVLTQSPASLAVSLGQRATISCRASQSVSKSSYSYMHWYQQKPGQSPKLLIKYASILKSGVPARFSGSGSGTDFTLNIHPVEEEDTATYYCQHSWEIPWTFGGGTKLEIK | 0.000312 s⁻¹ |
| F4.18.13 (antibody, human IgG1, V domains shown, human-murine chimeric antibody, human IgG1 constant) VH: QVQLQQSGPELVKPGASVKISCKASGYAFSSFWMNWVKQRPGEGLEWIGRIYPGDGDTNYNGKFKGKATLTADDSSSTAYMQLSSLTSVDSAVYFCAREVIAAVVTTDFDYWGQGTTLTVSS VL: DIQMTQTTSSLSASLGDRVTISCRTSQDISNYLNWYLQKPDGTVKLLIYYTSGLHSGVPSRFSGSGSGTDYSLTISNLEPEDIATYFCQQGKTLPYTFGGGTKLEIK | 0.000171 s⁻¹ |
| F6.12.12 (antibody, human IgG1, V domains shown, human-murine chimeric antibody, human IgG1 constant) VH: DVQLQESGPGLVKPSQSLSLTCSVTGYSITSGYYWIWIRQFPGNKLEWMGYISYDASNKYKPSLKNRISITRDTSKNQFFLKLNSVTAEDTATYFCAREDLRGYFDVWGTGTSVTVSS VL: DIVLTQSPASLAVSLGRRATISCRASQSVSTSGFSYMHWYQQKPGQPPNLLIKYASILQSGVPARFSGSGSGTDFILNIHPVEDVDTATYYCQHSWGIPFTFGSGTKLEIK | 0.000245 s⁻¹ |
